Test system: LOX IMVI melanoma
Assay: NCI-60 one-dose screen, 48 h
Details: 10 µM unless noted
This is part of a sample that, as a whole, favours compounds with a hit. Of some 83,000 tested, about 20% had one in any assay. Active and inactive are the calls of the source. The calls were made as follows: active = growth percent below 10; inactive = the rest.
The reply should name one outcome from active, inactive

GET /call?item= COc1cc(-c2nc(-c3nc4ccc(Cl)cc4[nH]3)cc3c2[nH]c2ccccc23)cc(OC)c1OC returns the recorded outcome of this test. inactive

GET /call?item= COc1cc(/C=C/C(=O)c2c(C)nc3ccccc3c2C)ccc1OCCCCOc1cc2c(cc1OC)C(=O)N1CCC[C@H]1C=N2 returns the recorded outcome of this test. active

GET /call?item= COc1ccc(C2=Nn3c(nnc3-n3nc(C)cc3C)SC2)cc1 returns the recorded outcome of this test. inactive

GET /call?item= CCCCCCCC[C@@H](O)CC(=O)N[C@@H](CC(N)=O)C(=O)N[C@@H](CCC(N)=O)C(=O)N[C@@H](CC(=O)c1cc(C)cc(O)c1C(=O)c1c(O)cccc1O)CC(C)C returns the recorded outcome of this test. inactive

GET /call?item= CCOC(=O)c1cn2c3c(cccc3c1=O)C(=O)/C(=C/c1cccc(Cl)c1Cl)C2 returns the recorded outcome of this test. inactive

GET /call?item= C[n+]1c(/C=C/c2c(O)ccc3ccccc23)ccc2ccccc21 returns the recorded outcome of this test. active

GET /call?item= O=C(Nc1cccc(-n2cc(-c3ccncc3)c(-c3ccc(Cl)c(O)c3)n2)c1)Nc1ccc(Cl)c(Cl)c1 returns the recorded outcome of this test. inactive

GET /call?item= C=C1C(=O)O[C@H]2[C@H]1CC/C(COC(=O)NCc1ccccc1OC)=C\CC[C@@]1(C)O[C@@H]21 returns the recorded outcome of this test. active

GET /call?item= NC(=O)CCCN1C/C(=C\c2ccccc2)C(=O)c2ccccc21 returns the recorded outcome of this test. inactive

GET /call?item= O=C(NS(=O)(=O)c1ccc2ccccc2c1)n1cc(-c2ccncc2)c(-c2ccc(Cl)c(O)c2)n1 returns the recorded outcome of this test. inactive

GET /call?item= COc1ccc(Cn2cc3c(c2-c2cc(OC)c(OC)c(OC)c2)CCc2cnoc2-3)cc1 returns the recorded outcome of this test. inactive

----------
Tested on: SW-620 colon
Test: NCI-60 one-dose screen, 48 h (100 = growth as untreated, 0 = no growth, -100 = all killed)
Details: 10 µM unless noted
About 83,000 compounds went through this panel and 20% of them were active in at least one assay; those are over-represented in the sample as a whole.
Can you tell me growth for the items I'm about to list?
Reply with just the number (in %).

Read the entry O=C(NCc1cn(Cc2cccc(Oc3ccccc3)c2)nn1)c1cccnc1Nc1ccc(F)cc1 and write its reported growth. 44.7

Read the entry O=C(NNC(=O)N1c2ccccc2C=Cc2ccccc21)c1ccccc1 and write its reported growth. 107

Read the entry O=C([O][Sn]([O]C(=O)c1ccccn1)([c]1ccccc1)[c]1ccccc1)c1ccccn1 and write its reported growth. 0.566

Read the entry CCn1c2ccccc2c2cc(NC(=O)Nc3ccc([N+](=O)[O-])cc3C)ccc21 and write its reported growth. 51.9

Read the entry Cc1ccc(S(=O)(=O)NCCNc2cc(-c3cn(C(C)(C)C)nc3-c3cccc(O)c3)ccn2)cc1 and write its reported growth. 39.7

----------
System: LOX IMVI melanoma
Experiment: NCI-60 one-dose screen, 48 h
Settings: 10 µM unless noted
About 83,000 compounds went through this panel and 20% of them were active in at least one assay; those are over-represented in the sample as a whole. Active and inactive are the calls of the source. Rule for the calls: active = growth percent below 10; inactive = the rest.
The reply should name one outcome from 1 = active, 0 = inactive

GET /call?item= O=C(NCCNc1nccc(-n2ccc3cccnc32)n1)c1ccc(C(F)(F)F)cc1 returns the recorded outcome of this test. 0

GET /call?item= N=c1ccc2nc3ccc(N)cc3sc-2c1 returns the recorded outcome of this test. 1

GET /call?item= O=S(=O)(NCCNc1nccc(-c2c(-c3ccc(F)cc3)nc3sccn23)n1)c1ccc(F)cc1 returns the recorded outcome of this test. 0

GET /call?item= CCCCCCN1CSC(=S)N(CCCCCC)C1 returns the recorded outcome of this test. 0

GET /call?item= CCN1C(=O)N(CC)C2C1NN=c1s/c(=C\c3cccnc3)c(=O)n12 (stereo not given) returns the recorded outcome of this test. 0

GET /call?item= COc1cc2c(=O)n(C3CCCCCC3)c3c4cc[nH]c4ncc3c2cc1OC returns the recorded outcome of this test. 0

GET /call?item= Cc1ccc(NS(=O)(=O)c2cc(C)ccc2C)cc1 returns the recorded outcome of this test. 0

GET /call?item= COc1cc(-c2nn(-c3cccc(NC(=O)Nc4cccc(C(F)(F)F)c4)c3)cc2-c2ccncc2)ccc1Cl returns the recorded outcome of this test. 1

GET /call?item= COc1ccc(-c2nc3sccn3c2/C=C/C(=O)c2cc(F)cc(F)c2)cc1 returns the recorded outcome of this test. 0

GET /call?item= COc1ccc2c(c1)OC1=C(C(=O)OC1)C2c1cc(OC)c2c(c1)OCO2 (stereo not given) returns the recorded outcome of this test. 0
